Origin of measurements: patent US20220081485A1

Target: T1, mmIL4R-mFc (Macaca mulatta IL-4R extracellular domain fused to murine IgG2a Fc) (Macaca mulatta)
T1 chain: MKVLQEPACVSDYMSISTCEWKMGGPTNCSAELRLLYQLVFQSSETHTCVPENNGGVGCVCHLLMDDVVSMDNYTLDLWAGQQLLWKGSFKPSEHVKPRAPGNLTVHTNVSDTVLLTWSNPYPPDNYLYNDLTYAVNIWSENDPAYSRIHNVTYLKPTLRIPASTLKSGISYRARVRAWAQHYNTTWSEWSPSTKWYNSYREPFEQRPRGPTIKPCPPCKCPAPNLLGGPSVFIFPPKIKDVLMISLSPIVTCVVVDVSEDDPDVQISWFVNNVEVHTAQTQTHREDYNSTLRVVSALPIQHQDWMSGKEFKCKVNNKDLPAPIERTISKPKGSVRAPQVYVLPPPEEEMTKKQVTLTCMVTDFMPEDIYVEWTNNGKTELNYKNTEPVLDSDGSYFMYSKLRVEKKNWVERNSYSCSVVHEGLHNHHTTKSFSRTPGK
Experiment: SPR Biacore X100, antibody captured, mmIL4R-mFc as analyte
Protocol: The affinity of each anti-IL4R IgG4 chimeric antibody was determined using Biacore X100. Amino coupling kits, human antibody capture kits, CM5 chips, 1× HBS-EP (pH 7.4) and all reagents used in this assay were purchased from GE Healthcare. […]
Would you mind telling me the reported Kd of each entry?
Please state the figure in nM; there is no need to write the unit.

Inquiry: What value of measured Kd is listed for S1E6-IgG4 (antibody, V domains shown, also called monoclonal antibody S1E6) VH: EVQLVESGGGLVQPGGSLRLSCAVSGFTFSSYAMSWVRQAPGKGLEWVSSITGGGGGIYYADSVKGRFTISRDNSKNTVYLQMNSLRAEDTAVYYCAKDRISITIRPRYFGLDFWGQGTTVTVSS VL: DIVMTQSPLSLPVTPGEPASISCRSSRSVLYGNGYNYLDWYLQKSGQSPQLLIYLGTNVAAGVPDRFSGSGSGTDFTLKISRVEAEDVGFYYCMQSLRTPYTFGQGTKLEIKR ?
Reply text: 9.3

Inquiry: Entry L28G5-IgG4 (antibody, V domains shown, also called S1E6 light chain mutant L28G5) VH: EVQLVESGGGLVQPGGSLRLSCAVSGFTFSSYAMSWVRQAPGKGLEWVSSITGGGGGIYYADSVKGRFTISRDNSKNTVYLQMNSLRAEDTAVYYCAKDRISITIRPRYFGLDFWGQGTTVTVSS VL: DIVMTQSPLSLPVTPGEPASISCRSSRNVIYGNGYNYLDWYLQKSGQSPQLLIYLGNNVAAGVPDRFSGSGSGTDFTLKISRVEAEDVGFYYCMQSLQAPYTFGQGTKLEIKR has what Kd?
Reply text: 10.4

Inquiry: Entry under review: L28F8-IgG4 (antibody, V domains shown, also called S1E6 light chain mutant L28F8) VH: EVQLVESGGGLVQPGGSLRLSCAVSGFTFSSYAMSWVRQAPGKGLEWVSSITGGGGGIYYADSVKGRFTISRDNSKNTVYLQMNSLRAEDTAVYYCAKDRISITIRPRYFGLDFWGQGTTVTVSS VL: DIVMTQSPLSLPVTPGEPASISCRSSQNVVYGNGYNYLDWYLQKSGQSPQLLIYLGTNVAAGVPDRFSGSGSGTDFTLKISRVEAEDVGFYYCMQSLQAPYTFGQGTKLEIKR . Reported Kd?
Reply text: 6.93

Inquiry: Which Kd is reported for this binder? L18D7-IgG4 (antibody, V domains shown, also called S1E6 light chain mutant L18D7) VH: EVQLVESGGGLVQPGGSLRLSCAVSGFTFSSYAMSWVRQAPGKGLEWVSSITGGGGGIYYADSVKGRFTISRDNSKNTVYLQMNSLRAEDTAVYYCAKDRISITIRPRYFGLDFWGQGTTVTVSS VL: DIVMTQSPLSLPVTPGEPASISCRSSQSLLYSIGYNYLDWYLQKSGQSPQLLIYLGSNRASGVPDRFSGSGSGTDFTLKISRVEAEDVGFYYCMQSFKAPYTFGQGTKLEIKR
Reply text: 1.67

Inquiry: Please give the measured Kd for this binder: L28C9-IgG4 (antibody, V domains shown, also called S1E6 light chain mutant L28C9) VH: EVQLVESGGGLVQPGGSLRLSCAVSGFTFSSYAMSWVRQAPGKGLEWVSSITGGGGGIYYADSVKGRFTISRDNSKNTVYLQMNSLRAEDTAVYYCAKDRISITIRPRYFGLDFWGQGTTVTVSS VL: DIVMTQSPLSLPVTPGEPASISCRSSQNVVYGNGYNYLDWYLQKSGQSPQLLIYLGNNVAAGVPDRFSGSGSGTDFTLKISRVEAEDVGFYYCMQSLKAPYTFGQGTKLEIKR
Reply text: 8.4
